Taken from PubChem BioAssay (NCI).

Tested on: UACC-257 melanoma
Assay: NCI-60 one-dose screen, 48 h (100 = growth as untreated, 0 = no growth, -100 = all killed)
Settings: 10 µM
About 83,000 compounds went through this panel and 20% of them were active in at least one assay; those are over-represented in the sample as a whole.
readout kind: growth (%)
Just the number please, in %, no unit attached.

Kindly note: UACC-257 melanoma, S=C1SCN(CCc2ccccc2)CN1CCc1ccccc1 , growth value reported: 71.6

Kindly note: UACC-257 melanoma, ClCCn1c(CCl)nc2ccc(Cl)cc21 , growth value reported: 70.3

Kindly note: UACC-257 melanoma, CC[C@@]1(OC(=O)CN(C)C)C(=O)OCc2c1cc1n(c2=O)Cc2cc3c(N)cccc3nc2-1 , growth value reported: -35.4

Kindly note: UACC-257 melanoma, CCC(C)(c1ccc(O)c(C)c1)c1ccc(O)c(C)c1 , growth value reported: 107

Kindly note: UACC-257 melanoma, O=C(O)c1ccccc1.[Ag] , growth value reported: 93.6

Kindly note: UACC-257 melanoma, O=C1c2cccc3cc([N+](=O)[O-])cc(c23)C(=O)N1CCN1CCCC1 , growth value reported: 3.14

Kindly note: UACC-257 melanoma, COc1ccc2c(c1)[nH]c1c(/C=C/c3ccccc3)nccc12 , growth value reported: 71.8
